molecular target: α-glucosidase; test: In vitro α-glucosidase inhibition (spectroscopic method); assay type: biochemical; conditions: means of experiments, n = 3
pIC50: −log10 of the molar value.
Metric Name: pIC50

Recorded results for 6 compounds are shown here.
| Smiles | pIC50 |
| --- | --- |
| O=C(C[n+]1c(CN2CCOCC2)n(Cc2ccccc2)c2ccccc21)Nc1ccccc1Cl | 4.30 |
| Cc1ccc(NC(=O)C[n+]2c(CN3CCOCC3)n(Cc3ccccc3)c3ccccc32)cc1 | 4.06 |
| Cc1cccc(NC(=O)C[n+]2c(CN3CCOCC3)n(Cc3ccccc3)c3ccccc32)c1 | 4.33 |
| O=C(C[n+]1c(CN2CCOCC2)n(Cc2ccccc2)c2ccccc21)Nc1ccc([N+](=O)[O-])cc1 | 4.60 |
| O=C(C[n+]1c(CN2CCOCC2)n(Cc2ccccc2)c2ccccc21)Nc1ccccc1[N+](=O)[O-] | 4.52 |
| COc1ccc(NC(=O)C[n+]2c(CN3CCOCC3)n(Cc3ccccc3)c3ccccc32)cc1 | 4.19 |

P. O=C(C[n+]1c(CN2CCOCC2)n(Cc2ccccc2)c2ccccc21)Nc1ccccc1Br
Q. O=C(C[n+]1c(CN2CCOCC2)n(Cc2ccccc2)c2ccccc21)Nc1ccc(Br)cc1
Query: Hi there! Just curious which has the higher pIC50 between P and Q . Identify your selection by its label.
Response: Q
(Q: 4.82, P: 4.26)

----------
target: α-glucosidase; test: In vitro α-glucosidase inhibition (spectroscopic method); format: biochemical; settings: means of experiments, n = 3
Metric Name: IC50 (µM)

| Smiles | Result Unit | IC50 |
| --- | --- | --- |
| O=C(C[n+]1c(CN2CCOCC2)n(Cc2ccccc2)c2ccccc21)Nc1ccc(Cl)cc1 | µM | 35 |
| Cc1ccccc1NC(=O)C[n+]1c(CN2CCOCC2)n(Cc2ccccc2)c2ccccc21 | µM | 21 |

I. O=C(C[n+]1c(CN2CCOCC2)n(Cc2ccccc2)c2ccccc21)Nc1ccccc1
II. O=C(C[n+]1c(CN2CCOCC2)n(Cc2ccccc2)c2ccccc21)Nc1cccc([N+](=O)[O-])c1
Query: Compare reported IC50 values for I and II . Which is lower? Identify your selection by its label.
Response: II
